# System name: botulinum neurotoxin type A (BoNT/A), purified holotoxin (Clostridium botulinum, UniProt P0DPI0 2-1296)
# Assay procedure: yeast displayed scFv, flow cytometry
Parameter measured: Kd
A complete answer gives the number followed by the unit.

Solved entries (count: 3):
{"Binder": "AR4 scFv (scFv, V domains shown) VH: QVQLQESGGGLVQPGGSLRLSCAASGFTFEEHYMYWVRQAPGKGLEWVATISDGGSYTYYPDSVEGRFTTSRDNSKNTLYLQMNSLRAEDTAIYYCSRYRYDDAMDYWGQGTLVTVSS VL: EIVLTQSPATLSLSPGERATISCRASESVDSYGHSFMQWYQQKPGQAPRLLIYRASNLEPGIPARFSGSGSGTDFTLTISSLEPEDFAVYYCQQGNEVPFTFGQGTKVEIK", "Parameter measured": "Kd", "Reported measurement": "0.023 nM"}
{"Binder": "AR1 scFv (scFv, V domains shown) VH: QVQLQESGGGLVQPGGSLRLSCAASGFTFSDYYMYWVRQAPGKGLEWVATISDGGSYTYYPDSVKGRFTISRDNSKNTLYLQMNSLRAEDTAIYYCSRYRYDDAMDYWGQGTLVTVSS VL: EIVLTQSPATLSLSPGERATISCRASESVDSYGHSFMQWYQQKPGQAPRLLIYRASNLEPGIPARFSGSGSGTDFTLTISSLEPEDFAVYYCQQGNEVPFTFGQGTKVEIK", "Parameter measured": "Kd", "Reported measurement": "0.169 nM"}
{"Binder": "AR3 scFv (scFv, V domains shown) VH: QVQLQESGGGLVQPGGSLRLSCAASGFTFGEHYMYWVRQAPGKGLEWVATISDGGSYTYYPDSVEGRFTTSRDNSKNTLYLQMNSLRAEDTAIYYCSRYRYDDAMDYWGQGTLVTVSS VL: EIVLTQSPATLSLSPGERATISCRASESVDSYGHSFMQWYQQKPGQAPRLLIYRASNLEPGIPARFSGSGSGTDFTLTISSLEPEDFAVYYCQQGNEVPFTFGQGTKVEIK", "Parameter measured": "Kd", "Reported measurement": "0.019 nM"}

For each entry beneath this line, provide reported Kd.
1. HuC25 scFv (scFv, V domains shown) VH: QVQLQESGGGLVQPGGSLRLSCAASGFTFSDYYMYWVRQAPGKGLEWVATISDGGSYTYYPDSVKGRFTISRDNSKNTLYLQMNSLRAEDTAMYYCSRYRYDDAMDYWGQGTLVTVSS VL: EIVLTQSPATLSLSPGERATISCRASESVDSYGHSFMQWYQQKPGQAPRLLIYRASNLEPGIPARFSGSGSGTDFTLTISSLEPEDFAVYYCQQSNEDPFTFGQGTKVEIK
2. AR2 scFv (scFv, V domains shown) VH: QVQLQESGGGLVQPGGSLRLSCAASGFTFSDHYMYWVRQAPGKGLEWVATISDGGSYTYYPDSVKGRFTTSRDNSKNTLYLQMNSLRAEDTAIYYCSRYRYDDAMDYWGQGTLVTVSS VL: EIVLTQSPATLSLSPGERATISCRASESVDSYGHSFMQWYQQKPGQAPRLLIYRASNLEPGIPARFSGSGSGTDFTLTISSLEPEDFAVYYCQQGNEVPFTFGQGTKVEIK

Result block:
["0.844 nM", "0.0614 nM"]
